target: Luciferin 4-monooxygenase (Photinus pyralis) (UniProt P08659); assay: qHTS profiling assay for firefly luciferase inhibitor/activator using purifed enzyme and Km concentrations of substrates (counterscreen for miR-21 project); conditions: purified FLuc, luminescence inhibition; series mostly up to 57.5 µM; note: nearly all actives have a fitted effect of over 55% in size
Sequence (P08659 whole entry, looked up): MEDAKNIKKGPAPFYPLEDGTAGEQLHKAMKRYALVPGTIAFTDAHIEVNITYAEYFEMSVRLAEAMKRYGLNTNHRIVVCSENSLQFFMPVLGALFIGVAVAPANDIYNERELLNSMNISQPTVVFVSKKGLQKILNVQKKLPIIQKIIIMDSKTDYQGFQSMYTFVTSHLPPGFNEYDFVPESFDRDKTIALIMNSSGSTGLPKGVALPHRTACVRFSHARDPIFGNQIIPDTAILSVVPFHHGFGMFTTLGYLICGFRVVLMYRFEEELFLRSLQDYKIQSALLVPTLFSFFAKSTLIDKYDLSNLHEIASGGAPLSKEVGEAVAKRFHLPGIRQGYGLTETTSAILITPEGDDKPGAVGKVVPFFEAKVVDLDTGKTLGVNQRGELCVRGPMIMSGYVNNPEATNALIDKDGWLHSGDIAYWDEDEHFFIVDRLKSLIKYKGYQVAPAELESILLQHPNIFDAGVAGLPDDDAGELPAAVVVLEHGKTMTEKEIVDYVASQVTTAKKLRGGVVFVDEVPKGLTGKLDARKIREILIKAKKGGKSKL
Among all 360,000 compounds or so, about 25,000 (6.9%) were called active. Not shown: some 9% with an inconclusive outcome. The full list was thinned out, with actives kept by preference.

CHEM SMILES: COC(=O)Cc1ccc(OC(=O)C2CCN(S(=O)(=O)c3ccc(OC)c(OC)c3)CC2)cc1
outcome: inactive

CHEM SMILES: CN1C(=O)c2ccc(NC(=O)C3CCCCC3)cc2C1=O
outcome: inactive

CHEM SMILES: COc1cc(N=Cc2c(O)[nH]c3ccccc23)cc(OC)c1OC
outcome: inactive

CHEM SMILES: Cn1c(=O)n(C)c2cc(/C=N/NC(=O)c3cccc(Br)c3)ccc21
outcome: inactive
